- TGT: Peroxisomal multifunctional enzyme type 2 (Homo sapiens) (UniProt P51659)
- Sequence (whole entry): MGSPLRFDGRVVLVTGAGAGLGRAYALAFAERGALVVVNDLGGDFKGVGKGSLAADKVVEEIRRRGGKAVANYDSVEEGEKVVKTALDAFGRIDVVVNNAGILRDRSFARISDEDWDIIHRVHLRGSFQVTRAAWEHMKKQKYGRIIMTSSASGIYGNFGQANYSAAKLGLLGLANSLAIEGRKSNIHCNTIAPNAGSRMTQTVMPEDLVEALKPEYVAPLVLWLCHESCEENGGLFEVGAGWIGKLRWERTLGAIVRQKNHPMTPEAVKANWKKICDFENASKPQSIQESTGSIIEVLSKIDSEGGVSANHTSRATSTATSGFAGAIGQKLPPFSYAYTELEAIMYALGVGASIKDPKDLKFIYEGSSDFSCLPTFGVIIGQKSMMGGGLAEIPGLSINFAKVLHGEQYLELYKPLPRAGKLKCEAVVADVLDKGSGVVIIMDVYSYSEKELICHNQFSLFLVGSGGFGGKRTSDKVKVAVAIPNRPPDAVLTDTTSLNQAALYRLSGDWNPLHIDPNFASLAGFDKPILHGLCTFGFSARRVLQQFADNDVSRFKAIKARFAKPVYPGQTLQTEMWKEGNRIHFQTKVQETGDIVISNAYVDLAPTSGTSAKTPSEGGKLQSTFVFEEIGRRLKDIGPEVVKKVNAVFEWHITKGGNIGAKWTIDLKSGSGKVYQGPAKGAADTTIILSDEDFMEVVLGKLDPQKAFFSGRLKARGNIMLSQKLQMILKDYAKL
- EXPERIMENTAL PROTOCOL: Inhibition of hydroxysteroid-17-beta dehydrogenase 4
PROPERTY NAME: Activity

[[record]]
compound = "CC(=O)COc1ccc2c3c(c(=O)oc2c1C)CCCCC3"
tgt = "Peroxisomal multifunctional enzyme type 2 (Homo sapiens) (UniProt P51659)"
result = "13 µM"

[[record]]
compound = "COC(=O)C(C)Oc1ccc2c3c(c(=O)oc2c1)CCCCC3 (centres undefined)"
tgt = "Peroxisomal multifunctional enzyme type 2 (Homo sapiens) (UniProt P51659)"
result = "32 µM"

[[record]]
compound = "CC(=O)C(C)Oc1ccc2c3c(c(=O)oc2c1)CCCCC3 (centres undefined)"
tgt = "Peroxisomal multifunctional enzyme type 2 (Homo sapiens) (UniProt P51659)"
result = "25 µM"

[[record]]
compound = "NC(=O)COc1ccc2c3c(c(=O)oc2c1)CCCCC3"
tgt = "Peroxisomal multifunctional enzyme type 2 (Homo sapiens) (UniProt P51659)"
result = "25 µM"


---

- TGT: UniProt:P08684
- EXPERIMENTAL PROTOCOL: Inhibition of human CYP3A4
- Type: ADME
PROPERTY NAME: Activity (µM)

[[record]]
compound = "COc1ccc(CNc2ncncc2-c2ccccc2CN(C)C)c(OC)c1"
property_name = "Activity"
result_number = 398

[[record]]
compound = "COc1ccc(CNc2ncnc3ccc(-c4ccccc4C#N)cc23)c(OC)c1"
property_name = "Activity"
result_number = 1

[[record]]
compound = "Cc1cccc(CNc2ncncc2-c2cccc(NS(C)(=O)=O)c2)c1"
property_name = "Activity"
result_number = 158

[[record]]
compound = "COc1ccccc1CNc1ncnc2ccc(-c3ccccc3C#N)cc12"
property_name = "Activity"
result_number = 4

[[record]]
compound = "CN(C)c1ccc(-c2ccc3ncnc(NCc4ccccc4)c3c2)cc1"
property_name = "Activity"
result_number = 2.5

[[record]]
compound = "CS(=O)(=O)Nc1cccc(-c2cncnc2NCc2ccccc2)c1"
property_name = "Activity"
result_number = 631


---

- TGT: UniProtKB P08684
- EXPERIMENTAL PROTOCOL: Inhibition of human CYP3A4
- Assay type: ADME
PROPERTY NAME: Activity (µM)

[[record]]
compound = "COc1ccc(CNc2ncncc2-c2ccccc2OC)c(OC)c1"
tgt = "UniProtKB P08684"
property_name = "Activity"
result_number = 316

[[record]]
compound = "N#Cc1cccc(-c2cncnc2NCc2ccccc2)c1"
tgt = "UniProtKB P08684"
property_name = "Activity"
result_number = 1259

[[record]]
compound = "CN(C)Cc1ccccc1-c1ccc2ncnc(NCc3ccccc3)c2c1"
tgt = "UniProtKB P08684"
property_name = "Activity"
result_number = 15.8

[[record]]
compound = "COc1cccc(-c2cncnc2NCc2cccc(C)c2)c1"
tgt = "UniProtKB P08684"
property_name = "Activity"
result_number = 398

[[record]]
compound = "COc1ccccc1CNc1ncnc2ccc(-c3cccc(NS(C)(=O)=O)c3)cc12"
tgt = "UniProtKB P08684"
property_name = "Activity"
result_number = 3.2

[[record]]
compound = "COc1ccc(CNc2ncncc2-c2ccc(N(C)C)cc2)c(OC)c1"
tgt = "UniProtKB P08684"
property_name = "Activity"
result_number = 199

[[record]]
compound = "Cc1cccc(CNc2ncncc2-c2ccccc2Cl)c1"
tgt = "UniProtKB P08684"
property_name = "Activity"
result_number = 199

[[record]]
compound = "COc1ccccc1CNc1ncnc2ccc(-c3ccc(C(=O)N(C)C)cc3)cc12"
tgt = "UniProtKB P08684"
property_name = "Activity"
result_number = 10

[[record]]
compound = "COc1cccc(-c2cncnc2NCc2ccc(OC)cc2OC)c1"
tgt = "UniProtKB P08684"
property_name = "Activity"
result_number = 501

[[record]]
compound = "COc1ccc(CNc2ncncc2-c2cccc(NS(C)(=O)=O)c2)c(OC)c1"
tgt = "UniProtKB P08684"
property_name = "Activity"
result_number = 251

[[record]]
compound = "Cc1cccc(CNc2ncncc2-c2cccc(C#N)c2)c1"
tgt = "UniProtKB P08684"
property_name = "Activity"
result_number = 199

[[record]]
compound = "COc1ccc(CNc2ncnc3ccc(-c4ccc(N(C)C)cc4)cc23)c(OC)c1"
tgt = "UniProtKB P08684"
property_name = "Activity"
result_number = 4

[[record]]
compound = "COc1ccccc1CNc1ncnc2ccc(-c3ccc(N(C)C)cc3)cc12"
tgt = "UniProtKB P08684"
property_name = "Activity"
result_number = 2

[[record]]
compound = "CN(C)C(=O)c1ccc(-c2ccc3ncnc(NCc4ccccc4)c3c2)cc1"
tgt = "UniProtKB P08684"
property_name = "Activity"
result_number = 15.8

[[record]]
compound = "Cc1cccc(CNc2ncncc2-c2ccccc2C)c1"
tgt = "UniProtKB P08684"
property_name = "Activity"
result_number = 398

[[record]]
compound = "COc1ccccc1CNc1ncnc2ccc(-c3cccc(C#N)c3)cc12"
tgt = "UniProtKB P08684"
property_name = "Activity"
result_number = 8

[[record]]
compound = "COc1ccccc1CNc1ncncc1-c1ccccc1Cl"
tgt = "UniProtKB P08684"
property_name = "Activity"
result_number = 199

[[record]]
compound = "COc1ccccc1CNc1ncncc1-c1cccc(NS(C)(=O)=O)c1"
tgt = "UniProtKB P08684"
property_name = "Activity"
result_number = 251

[[record]]
compound = "Cc1cccc(CNc2ncnc3ccc(-c4ccccc4C#N)cc23)c1"
tgt = "UniProtKB P08684"
property_name = "Activity"
result_number = 1.2

[[record]]
compound = "Cc1cccc(CNc2ncncc2-c2ccccc2C(F)(F)F)c1"
tgt = "UniProtKB P08684"
property_name = "Activity"
result_number = 79

[[record]]
compound = "COc1ccc(CNc2ncnc3ccc(-c4cccc(NS(C)(=O)=O)c4)cc23)c(OC)c1"
tgt = "UniProtKB P08684"
property_name = "Activity"
result_number = 2

[[record]]
compound = "COc1ccccc1CNc1ncncc1-c1ccc(C(=O)N(C)C)cc1"
tgt = "UniProtKB P08684"
property_name = "Activity"
result_number = 2512

[[record]]
compound = "COc1ccc(CNc2ncncc2-c2ccccc2C)c(OC)c1"
tgt = "UniProtKB P08684"
property_name = "Activity"
result_number = 398


---

- TGT: Cytochrome P450 3A4 (Homo sapiens, UniProt P08684)
- Sequence (P08684 whole entry): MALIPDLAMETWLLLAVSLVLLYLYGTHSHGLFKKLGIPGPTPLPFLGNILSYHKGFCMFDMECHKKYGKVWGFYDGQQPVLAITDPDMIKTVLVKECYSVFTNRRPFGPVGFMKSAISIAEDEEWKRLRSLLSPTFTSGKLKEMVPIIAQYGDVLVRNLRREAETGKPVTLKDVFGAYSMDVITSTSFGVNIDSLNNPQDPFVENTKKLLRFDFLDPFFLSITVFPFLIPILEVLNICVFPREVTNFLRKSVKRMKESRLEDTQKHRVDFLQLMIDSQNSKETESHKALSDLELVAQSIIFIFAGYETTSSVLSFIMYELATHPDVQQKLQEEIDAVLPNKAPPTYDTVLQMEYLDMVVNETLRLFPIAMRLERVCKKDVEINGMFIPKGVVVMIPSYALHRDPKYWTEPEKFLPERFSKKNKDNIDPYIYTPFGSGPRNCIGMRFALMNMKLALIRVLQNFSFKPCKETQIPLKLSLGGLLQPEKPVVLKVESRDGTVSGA
- EXPERIMENTAL PROTOCOL: Inhibition of human CYP3A4
- Type: ADME
Quick rule for you: Activity under 100 µM gets class 1, anything else gets class 0.

[[record]]
compound = "COc1ccc(CNc2ncnc3ccc(-c4cccc(C#N)c4)cc23)c(OC)c1"
answer_label = "class 1"

[[record]]
compound = "COc1ccc(CNc2ncnc3ccc(-c4ccccc4OC)cc23)c(OC)c1"
answer_label = "class 1"

[[record]]
compound = "COc1ccc(CNc2ncncc2-c2ccccc2OC)cc1"
answer_label = "class 0"

[[record]]
compound = "COc1cccc(-c2ccc3ncnc(NCc4ccc(OC)cc4OC)c3c2)c1"
answer_label = "class 1"

[[record]]
compound = "COc1ccc(CNc2ncncc2-c2cccc(C#N)c2)c(OC)c1"
answer_label = "class 0"

[[record]]
compound = "COc1ccccc1CNc1ncnc2ccc(-c3ccccc3OC)cc12"
answer_label = "class 1"

[[record]]
compound = "COc1ccc(CNc2ncnc3ccc(-c4ccccc4CN(C)C)cc23)c(OC)c1"
answer_label = "class 1"

[[record]]
compound = "COc1cccc(-c2cncnc2NCc2ccccc2)c1"
answer_label = "class 0"

[[record]]
compound = "COc1ccc(CNc2ncncc2-c2ccccc2C(F)(F)F)c(OC)c1"
answer_label = "class 0"

[[record]]
compound = "Cc1cccc(CNc2ncncc2-c2ccc(C(=O)N(C)C)cc2)c1"
answer_label = "class 0"

